Data provenance is paper PMC9911399.

- target or test system: T1, RBFOX1 RRM (Homo sapiens, UniProt Q9NWB1 109-208)
- T1 sequence: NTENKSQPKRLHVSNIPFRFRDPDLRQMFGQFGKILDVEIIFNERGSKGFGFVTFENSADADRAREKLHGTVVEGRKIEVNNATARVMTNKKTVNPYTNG
- experiment summary: EMSA; HiTS-Eq, 1 nM pool, 10 min; buffer printed only for the single-RNA assays: 10 mM Tris pH 7.5, 150 mM NaCl, 3.4 mM EDTA, 0.001% NP-40, 30 C
- cond: tags: His6 N-terminal (pET28a); label: 5' 32P
Over roughly 16,000 sequences, “ka relative to ugcaugu” has its median near 0.0091; the highest 2% begin near 0.032. For the sample, the highest values were picked, then their nearest neighbours and some sequences at random.
endpoint name: binding signal

Incoming: Give the measured binding signal of AGGUCAC (DNA:RNA) RNA: GGGAGACCGGAAUUCAGAUUGUCCAGGUCACUUAAAUCCCGUCGUAGCCACCA DNA 1: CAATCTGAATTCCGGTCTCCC DNA 2: TGGTGGCTACGACGGGATT .
Outgoing: 0.0109 KA relative to UGCAUGU

Incoming: Give the measured binding signal of CGGCACG (DNA:RNA) RNA: GGGAGACCGGAAUUCAGAUUGUCCCGGCACGUUAAAUCCCGUCGUAGCCACCA DNA 1: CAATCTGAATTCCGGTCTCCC DNA 2: TGGTGGCTACGACGGGATT .
Outgoing: 0.0377 KA relative to UGCAUGU

Incoming: Give the measured binding signal of UCUCUCC (DNA:RNA) RNA: GGGAGACCGGAAUUCAGAUUGUCCUCUCUCCUUAAAUCCCGUCGUAGCCACCA DNA 1: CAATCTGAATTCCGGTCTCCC DNA 2: TGGTGGCTACGACGGGATT .
Outgoing: 0.00975 KA relative to UGCAUGU

Incoming: Give the measured binding signal of CAUAACG (DNA:RNA) RNA: GGGAGACCGGAAUUCAGAUUGUCCCAUAACGUUAAAUCCCGUCGUAGCCACCA DNA 1: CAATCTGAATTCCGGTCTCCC DNA 2: TGGTGGCTACGACGGGATT .
Outgoing: 0.00316 KA relative to UGCAUGU
